target: p110α/p85 (Homo sapiens); test: Inhibition of isolated enzyme p110α/p85 (lipid kinase, [γ-33P]ATP, TLC); assay type: biochemical; conditions: recombinant enzyme, 100 μM ATP, nine concentrations, average of two experiments
Sequence (P42336 whole entry): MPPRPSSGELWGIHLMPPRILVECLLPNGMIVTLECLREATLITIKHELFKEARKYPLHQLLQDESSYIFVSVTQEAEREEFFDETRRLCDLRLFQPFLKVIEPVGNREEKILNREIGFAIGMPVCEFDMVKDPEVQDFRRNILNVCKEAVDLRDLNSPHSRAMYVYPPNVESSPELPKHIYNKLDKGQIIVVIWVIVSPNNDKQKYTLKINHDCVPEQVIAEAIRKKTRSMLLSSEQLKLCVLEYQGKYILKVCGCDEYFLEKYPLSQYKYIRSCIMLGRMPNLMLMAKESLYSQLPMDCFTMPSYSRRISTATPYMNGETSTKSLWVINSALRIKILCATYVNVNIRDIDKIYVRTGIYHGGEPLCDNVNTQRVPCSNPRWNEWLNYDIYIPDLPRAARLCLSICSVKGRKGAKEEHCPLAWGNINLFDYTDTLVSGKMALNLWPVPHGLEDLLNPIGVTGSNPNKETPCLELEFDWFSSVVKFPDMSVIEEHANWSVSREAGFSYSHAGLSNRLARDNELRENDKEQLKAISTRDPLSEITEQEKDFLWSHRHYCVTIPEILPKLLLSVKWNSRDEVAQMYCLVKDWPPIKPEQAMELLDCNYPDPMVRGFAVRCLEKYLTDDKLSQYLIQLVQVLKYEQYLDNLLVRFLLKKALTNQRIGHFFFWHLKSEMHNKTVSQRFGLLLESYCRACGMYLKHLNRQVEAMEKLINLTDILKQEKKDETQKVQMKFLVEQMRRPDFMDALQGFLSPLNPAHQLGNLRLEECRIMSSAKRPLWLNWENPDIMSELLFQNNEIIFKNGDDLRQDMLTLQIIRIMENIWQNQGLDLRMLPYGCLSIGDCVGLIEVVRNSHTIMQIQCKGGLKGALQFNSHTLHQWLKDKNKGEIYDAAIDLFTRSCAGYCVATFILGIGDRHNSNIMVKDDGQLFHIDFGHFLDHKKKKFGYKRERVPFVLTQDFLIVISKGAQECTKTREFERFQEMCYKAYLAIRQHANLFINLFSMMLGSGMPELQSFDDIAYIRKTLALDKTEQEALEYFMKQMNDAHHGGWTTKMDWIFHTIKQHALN
Sequence (P27986 whole entry partner): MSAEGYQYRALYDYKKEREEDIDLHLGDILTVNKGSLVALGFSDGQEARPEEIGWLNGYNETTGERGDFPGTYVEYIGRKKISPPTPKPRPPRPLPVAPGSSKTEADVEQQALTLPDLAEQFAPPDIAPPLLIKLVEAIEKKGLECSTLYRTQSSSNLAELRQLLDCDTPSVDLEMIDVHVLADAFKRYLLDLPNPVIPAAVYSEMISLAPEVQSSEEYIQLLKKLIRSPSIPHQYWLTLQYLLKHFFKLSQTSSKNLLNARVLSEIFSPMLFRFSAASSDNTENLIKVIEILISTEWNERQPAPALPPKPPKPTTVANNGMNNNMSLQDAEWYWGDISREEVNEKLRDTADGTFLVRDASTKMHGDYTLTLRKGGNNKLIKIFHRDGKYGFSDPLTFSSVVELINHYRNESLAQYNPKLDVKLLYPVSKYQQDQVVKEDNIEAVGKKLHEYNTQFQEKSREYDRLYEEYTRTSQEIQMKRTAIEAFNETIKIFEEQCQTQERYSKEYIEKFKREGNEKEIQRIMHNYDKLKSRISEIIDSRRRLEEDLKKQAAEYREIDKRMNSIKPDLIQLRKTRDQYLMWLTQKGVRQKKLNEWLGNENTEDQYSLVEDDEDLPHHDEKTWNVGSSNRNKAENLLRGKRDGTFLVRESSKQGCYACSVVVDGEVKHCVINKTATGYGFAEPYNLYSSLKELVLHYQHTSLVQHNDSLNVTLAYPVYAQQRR
OBSERVABLE: IC50

Some compounds with recorded IC50:
* COc1cccc2c1nc(C(F)F)n2-c1nc(N2CCOCC2)nc(N2CCC(NS(=O)(=O)CCl)CC2)n1 | < 100 nM
* C=CS(=O)(=O)N1CCN(c2nc(N3CCOCC3)nc(-n3c(C(F)F)nc4c(OC)cccc43)n2)CC1 | < 100 nM
* COc1cccc2c1nc(C(F)F)n2-c1nc(N2CCOCC2)nc(N2CCC(NS(=O)(=O)C(F)(F)F)CC2)n1 | < 100 nM

In the following, a different compound is considered.
Given item COc1cccc2c1nc(C(F)F)n2-c1nc(N2CCOCC2)nc(N2CCN(S(=O)(=O)C(F)(F)F)CC2)n1 , the value recorded as its IC50 is 100 to 1000 nM

###

Tested on: NZB5
Assay: Cellular growth inhibition, NZB5 (3H-thymidine incorporation)
Format: cell-based, human
Details: read-out: Cell IC50 NZB5; five days incubation, 3H-thymidine over the last 6 hrs
Experimental: The compounds were evaluated against two early passage human cell lines NZB5 and NZOV9 (Marshall et al., Oncol. Res. 2004, 14, 297). […] Cells were harvested and incorporated radioactivity measured. Duplicate samples were analyzed for each compound dose with multiple control samples.
Measured IC50 of individual entries

* COc1cccc2c1nc(C(F)F)n2-c1nc(N2CCOCC2)nc(N(C)[C@H]2CCN(S(C)(=O)=O)C2)n1 | < 0.1 µM

Note to self: IC50 recorded for COc1cccc2c1nc(C(F)F)n2-c1nc(N[C@H]2CCCN(S(C)(=O)=O)C2)nc(N2CCOCC2)n1 was 0.1 to 1 µM

Lab note: measured IC50 of COc1cccc2c1nc(C(F)F)n2-c1nc(N[C@H]2CCN(S(C)(=O)=O)C2)nc(N2CCOCC2)n1 was 0.1 to 1 µM

###

target: p110δ/p85 (Homo sapiens); assay: Inhibition of isolated enzyme p110δ/p85 (lipid kinase, [γ-33P]ATP, TLC); conditions: recombinant enzyme, 100 μM ATP, nine concentrations, average of two experiments
Sequence (O00329 whole entry, species assumed): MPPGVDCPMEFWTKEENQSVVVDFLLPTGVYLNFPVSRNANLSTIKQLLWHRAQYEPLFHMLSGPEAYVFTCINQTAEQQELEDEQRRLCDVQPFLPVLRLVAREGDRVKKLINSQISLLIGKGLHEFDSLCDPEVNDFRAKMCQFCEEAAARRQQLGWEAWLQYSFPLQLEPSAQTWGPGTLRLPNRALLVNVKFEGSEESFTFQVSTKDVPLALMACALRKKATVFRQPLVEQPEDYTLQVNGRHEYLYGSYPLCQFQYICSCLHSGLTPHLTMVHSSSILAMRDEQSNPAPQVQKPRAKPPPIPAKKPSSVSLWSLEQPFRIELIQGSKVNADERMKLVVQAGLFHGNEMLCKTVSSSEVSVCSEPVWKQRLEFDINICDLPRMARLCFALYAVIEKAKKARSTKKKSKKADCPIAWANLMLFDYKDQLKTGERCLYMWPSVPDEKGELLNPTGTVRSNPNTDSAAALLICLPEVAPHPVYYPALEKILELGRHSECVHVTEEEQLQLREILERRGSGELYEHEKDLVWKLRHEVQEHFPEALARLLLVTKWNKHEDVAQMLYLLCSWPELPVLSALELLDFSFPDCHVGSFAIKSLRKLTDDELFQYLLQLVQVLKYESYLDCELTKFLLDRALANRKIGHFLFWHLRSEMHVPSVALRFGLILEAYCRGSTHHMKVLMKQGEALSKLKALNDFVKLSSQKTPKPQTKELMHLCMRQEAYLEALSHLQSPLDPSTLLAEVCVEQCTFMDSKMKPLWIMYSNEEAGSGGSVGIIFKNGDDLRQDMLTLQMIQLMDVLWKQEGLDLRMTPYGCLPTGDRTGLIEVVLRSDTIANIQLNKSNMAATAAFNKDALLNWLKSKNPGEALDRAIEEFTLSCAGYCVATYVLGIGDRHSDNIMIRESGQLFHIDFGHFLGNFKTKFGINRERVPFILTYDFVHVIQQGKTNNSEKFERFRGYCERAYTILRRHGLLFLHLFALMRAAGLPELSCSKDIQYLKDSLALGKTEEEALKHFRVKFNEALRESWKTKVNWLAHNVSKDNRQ
Sequence (P27986 whole entry partner, species assumed): as the sequence (P27986 whole entry partner) above
OBSERVABLE: IC50

• COc1cccc2c1nc(C(F)F)n2-c1nc(N2CCOCC2)nc(N2CC(NS(=O)(=O)C(F)(F)F)C2)n1 [Example 88] = 100 to 1000 nM

Sure, the documented IC50 for C=CS(=O)(=O)N1CCN(c2nc(N3CCOCC3)nc(-n3c(C(F)F)nc4c(OC)cccc43)n2)CC1 [Example 3] is < 100 nM

For reference, reported IC50 for COc1cccc2c1nc(C(F)F)n2-c1nc(Nc2ccc(N(C)S(C)(=O)=O)nc2)nc(N2CCOCC2)n1 [Example 101] stands at < 100 nM

Value of IC50 reported for the compound COc1cccc2c1nc(C(F)F)n2-c1nc(N2CCOCC2)nc(N2CCC(NS(=O)(=O)C(F)(F)F)CC2)n1 [Example 87] is 100 to 1000 nM

Looking up COc1cccc2c1nc(C(F)F)n2-c1nc(-c2ccc(S(=O)(=O)N3CCN(C)CC3)cc2)nc(N2CCOCC2)n1 [Example 95] , I found its IC50 recorded as > 1000 nM

Reported IC50 ( COc1cccc2c1nc(C(F)F)n2-c1nc(N2CCOCC2)nc(N2CCN(S(=O)(=O)C(F)(F)F)CC2)n1 [Example 86] ) = > 1000 nM

Documented IC50 of COc1cccc2c1nc(C(F)F)n2-c1nc(Nc2ccc(NS(C)(=O)=O)nc2)nc(N2CCOCC2)n1 [Example 100] : < 100 nM

The compound identified as COc1cccc2c1nc(C(F)F)n2-c1nc(N2CCOCC2)cc(N(C)C2CCN(S(C)(=O)=O)CC2)n1 [Example 6] registered its IC50 at < 100 nM

Lab note: measured IC50 of COc1cccc2c1nc(C(F)F)n2-c1nc(N2CCOCC2)nc(N2CCC(NS(=O)(=O)CCl)CC2)n1 [Example 61] was < 100 nM

Data provenance: patent US8772287B2
